- TARGET: purified recombinant human insulin receptor-exon 11 (human) (UniProt P06213)
- Sequence (P06213 other isoform, or with tags, fused parts or gaps limits assumed, form in doubt): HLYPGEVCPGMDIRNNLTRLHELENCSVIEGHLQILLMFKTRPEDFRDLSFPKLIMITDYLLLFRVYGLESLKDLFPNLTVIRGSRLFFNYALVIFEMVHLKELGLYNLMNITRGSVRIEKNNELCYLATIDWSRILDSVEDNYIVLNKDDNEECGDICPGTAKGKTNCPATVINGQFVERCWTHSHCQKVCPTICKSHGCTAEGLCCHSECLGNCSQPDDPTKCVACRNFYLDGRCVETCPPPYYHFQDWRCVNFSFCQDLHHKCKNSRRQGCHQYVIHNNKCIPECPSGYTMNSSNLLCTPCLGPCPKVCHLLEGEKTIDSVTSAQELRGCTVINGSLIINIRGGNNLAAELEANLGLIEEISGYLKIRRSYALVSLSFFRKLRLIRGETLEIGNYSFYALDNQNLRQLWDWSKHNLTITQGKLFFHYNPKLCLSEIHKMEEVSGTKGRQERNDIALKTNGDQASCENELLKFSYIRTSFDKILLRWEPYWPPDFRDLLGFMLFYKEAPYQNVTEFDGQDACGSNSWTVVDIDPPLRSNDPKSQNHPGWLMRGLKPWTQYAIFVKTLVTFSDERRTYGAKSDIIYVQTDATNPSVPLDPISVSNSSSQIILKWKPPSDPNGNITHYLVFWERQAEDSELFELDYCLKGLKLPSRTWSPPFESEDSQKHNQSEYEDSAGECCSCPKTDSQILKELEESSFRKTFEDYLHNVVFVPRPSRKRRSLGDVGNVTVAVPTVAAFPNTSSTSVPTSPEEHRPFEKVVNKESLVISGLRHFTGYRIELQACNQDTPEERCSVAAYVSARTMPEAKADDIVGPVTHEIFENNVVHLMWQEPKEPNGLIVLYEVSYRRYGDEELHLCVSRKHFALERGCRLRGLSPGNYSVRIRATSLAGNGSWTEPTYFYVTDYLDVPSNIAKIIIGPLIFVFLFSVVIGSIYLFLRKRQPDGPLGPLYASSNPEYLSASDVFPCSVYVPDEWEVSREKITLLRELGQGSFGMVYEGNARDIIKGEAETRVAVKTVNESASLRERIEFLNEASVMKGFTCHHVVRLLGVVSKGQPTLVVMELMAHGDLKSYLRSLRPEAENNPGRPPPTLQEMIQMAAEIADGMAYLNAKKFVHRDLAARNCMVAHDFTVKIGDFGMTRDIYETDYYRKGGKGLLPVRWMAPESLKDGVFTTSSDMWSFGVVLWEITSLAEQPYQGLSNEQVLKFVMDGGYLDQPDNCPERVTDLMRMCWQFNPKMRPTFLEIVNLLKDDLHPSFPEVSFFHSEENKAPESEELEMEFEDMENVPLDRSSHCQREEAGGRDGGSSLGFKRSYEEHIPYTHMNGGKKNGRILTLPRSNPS
- TEST SUMMARY: assay (I): SPA, displacement of A14 Tyr[125I]-human insulin from recombinant human insulin receptor
Decide by insulin receptor binding relative to that of human insulin: equal to or exceeding 20% means satisfied, less means not satisfied.

# SUBSTANCE, ASSIGNED LABEL
measured = [
    ("B(1-29)-B29Q-TGLGSCR-A(1-22)-A18Q, A21 G-A22K(N (eps)hexadecand ioyl-g-LGlu) Human Insulin (from UniProt P01308 25-53; P01308 90-110) (ligand)", "satisfied"),
    ("B(1-29)-B29A-VGLSSGQ-A(1-21)-A15K(N(eps)-hexadecandioyl-g-L-Glu)-A18Q Human Insulin (from UniProt P01308 25-53; P01308 90-110) (ligand)", "not satisfied"),
    ("B(1-29)-B29A-VGLSSGQ-A(1-22)-A18Q, A22K(N(eps)octadecandioyl) Human Insulin (from UniProt P01308 25-53; P01308 90-110) (ligand)", "satisfied"),
    ("B(1-29)-B29A-VGLSSGQ-A(1-22)-A18Q, A22K(N(eps)myristoyl) Human Insulin (from UniProt P01308 25-53; P01308 90-110) (ligand)", "satisfied"),
    ("B(1-29)-B29A-VGLSSGQ-A(1-21)-A8K(N(eps)hexadecandioyl-gGlu)-A18Q Human Insulin (from UniProt P01308 25-53; P01308 90-110) (ligand)", "satisfied"),
]

----------
// values below are reported insulin receptor binding relative to that of human insulin
- TARGET: human insulin receptor (Homo sapiens, UniProt P06213)
- Sequence (P06213 28-746 isoform P06213-2 limits assumed): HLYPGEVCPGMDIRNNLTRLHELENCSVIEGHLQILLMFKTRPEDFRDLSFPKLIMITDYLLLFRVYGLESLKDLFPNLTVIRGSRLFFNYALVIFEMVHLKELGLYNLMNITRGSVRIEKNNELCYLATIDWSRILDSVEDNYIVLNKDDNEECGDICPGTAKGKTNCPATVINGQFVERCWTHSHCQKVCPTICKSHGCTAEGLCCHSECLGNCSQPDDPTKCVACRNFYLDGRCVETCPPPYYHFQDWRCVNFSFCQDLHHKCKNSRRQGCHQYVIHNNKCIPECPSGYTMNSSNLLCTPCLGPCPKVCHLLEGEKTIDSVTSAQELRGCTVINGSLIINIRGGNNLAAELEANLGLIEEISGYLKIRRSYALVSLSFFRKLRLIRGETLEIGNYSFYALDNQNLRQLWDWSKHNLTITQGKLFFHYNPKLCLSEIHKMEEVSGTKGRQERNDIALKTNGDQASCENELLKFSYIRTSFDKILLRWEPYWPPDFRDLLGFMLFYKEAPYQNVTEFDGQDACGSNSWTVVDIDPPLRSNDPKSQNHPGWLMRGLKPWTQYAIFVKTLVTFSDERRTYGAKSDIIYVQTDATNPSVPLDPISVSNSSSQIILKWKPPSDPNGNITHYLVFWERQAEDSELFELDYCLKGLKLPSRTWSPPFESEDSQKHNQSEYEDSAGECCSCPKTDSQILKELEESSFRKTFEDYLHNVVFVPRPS
- Sequence (P06213 763-1382 partner limits assumed): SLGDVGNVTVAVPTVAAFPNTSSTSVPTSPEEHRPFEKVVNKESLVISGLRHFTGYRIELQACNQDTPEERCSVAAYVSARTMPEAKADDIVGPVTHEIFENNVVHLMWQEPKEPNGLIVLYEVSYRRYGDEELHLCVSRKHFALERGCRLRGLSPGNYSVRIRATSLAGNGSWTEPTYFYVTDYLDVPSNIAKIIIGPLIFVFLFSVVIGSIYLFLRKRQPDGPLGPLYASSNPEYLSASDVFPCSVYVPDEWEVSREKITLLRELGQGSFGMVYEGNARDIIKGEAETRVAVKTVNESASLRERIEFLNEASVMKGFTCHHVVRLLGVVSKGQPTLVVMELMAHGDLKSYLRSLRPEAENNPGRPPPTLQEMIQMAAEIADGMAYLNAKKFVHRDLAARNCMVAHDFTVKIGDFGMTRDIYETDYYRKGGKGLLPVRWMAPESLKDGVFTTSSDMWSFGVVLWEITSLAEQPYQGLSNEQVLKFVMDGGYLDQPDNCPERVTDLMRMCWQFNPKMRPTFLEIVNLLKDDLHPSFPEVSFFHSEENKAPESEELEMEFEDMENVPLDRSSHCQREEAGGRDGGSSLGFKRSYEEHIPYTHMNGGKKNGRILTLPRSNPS
- TEST SUMMARY: Assay (I): insulin receptor binding, SPA microtiterplate antibody capture assay
- ASSAY SETUP: purified recombinant human insulin receptor - exon 11; A14 Tyr[125I]-human insulin tracer; human insulin = 100%
METRIC NAME: insulin receptor binding relative to that of human insulin

# SUBSTANCE, RECORDED RESULT
data = [
    ("B(1-29)-B29Q-TGLGSCR-A(1-22)-A18Q, A21 G-A22K(N (eps)hexadecand ioyl-g-LGlu) Human Insulin [Example 8]", "112.8%"),
    ("B(1-29)-B29A-VGLSSGQ-A(1-21)-A18K(N(eps)myristoyl) Human Insulin [Example 3]", "27%"),
    ("B(1-29)-B29A-VGLSSGQ-A(1-22)-A18Q, A22K(N(eps)octadecandioyl) Human Insulin [Example 5]", "24%"),
    ("B(1-29)-B29H-TGLGSGR-A(1-21)-A18K(N-eps-hexadecandioyl-g-L-Glu)-A21 G Human insulin [Example 7]", "45.7%"),
    ("B(1-29)-B29A-VGLSSGQ-A(1-22)-A18Q, A22K(N(eps)myristoyl) Human Insulin [Example 2]", "62%"),
    ("B(1-29)-B29A-VGLSSGQ-A(1-22)-A18Q-A22K((eps)heptadecandioyl-g-Glu) Human Insulin [Example 10]", "43%"),
    ("B(1-29)-B29A-VGLSSGQ-A(1-21)-A15K(N(eps)-hexadecandioyl-g-L-Glu)-A18Q Human Insulin [Example 9]", "17.4%"),
    ("B(1-29)-B29A-VGLSSGQ-A(1-21)-A18K(N(eps)hexadecandioyl-gGlu) Human Insulin [Example 1]", "25%"),
    ("B(1-29)-B29A-VGLSSGQ-A(1-21)-A8K(N(eps)hexadecandioyl-gGlu)-A18Q Human Insulin [Example 6]", "73%"),
    ("B(1-29)-B29A-VGLSSGQ-A(1-22)-A18Q, A22K(N(eps)hexadecandioyl-gGlu) Human Insulin [Example 4]", "44%"),
]
